target: recombinant human KLK5 (human) (UniProt Q9Y337); test: pro-KLK1 LC/MS assay, 0.5 nM KLK5, 300 nM pro-KLK1; box column 1 of 3; no unit printed, nM per text
Sequence (Q9Y337 67-293): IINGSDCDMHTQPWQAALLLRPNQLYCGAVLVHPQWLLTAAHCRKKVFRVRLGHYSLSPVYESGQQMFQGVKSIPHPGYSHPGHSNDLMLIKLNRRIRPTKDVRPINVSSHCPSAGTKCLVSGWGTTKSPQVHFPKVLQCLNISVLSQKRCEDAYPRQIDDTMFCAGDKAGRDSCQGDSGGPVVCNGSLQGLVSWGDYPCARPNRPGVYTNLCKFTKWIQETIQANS
VALUE KIND: pIC50
Lab note: report pIC50 as minus log10 of the concentration in molar units, number only.

Query block: What measured pIC50 goes with 10H3 (antibody, V domains shown) VH: QSVKESEGGLIKPTDTLTLTCTVSGFSLSTFAINWVRQAPGNGLEWIGAIGRGGSAYYASWAKSRSTITKNTNLNTVTLKMTRPTAADTATYFCARENAGSGWGELDIWGPGTLVTVSS VL: AYEMTQTPASVEVAVGGTVTINCQASESISSDLAWYQQKPGQRPKLLIYAASTLASGVPSRFKGSGSGTEFTLSISGVQCADAATYYCQQGYTWNNVDNVFGGGTEVVVK ?
Result block: 11.31

Query block: What measured pIC50 goes with 8B7 (antibody, V domains shown) VH: QSVKESEGGLFKPTDNLTLTCTVSGFSLSNYGVTWVRQAPGNGLEYIGFIGSSGSAYYASWAKSRSTITRNTNLNTVTLKMTSLTAADTATYFCARDDVGGGKSLDIWGPGTLVTVSS VL: NIVMTQTPASVEVAVGGTVTIKCQASQSIGSYLSWYQQKPGQPPKLLIYDASNLASGVPSRFKGSGSGTQFTLSISDLECADAATYYCHQDYTSNNVDNTFGGGTEVVIK ?
Result block: 10.32
